Please respond with reported inhibition in vivo at 25 mg/kg for every item in the list.
# Test system: kaolin-induced edema of rat hind limb
# Test details: kaolin-induced edema of rat hind limb (antiinflammatory activity, gavage)
# Format: in vivo, rat (Wistar strain, Konarovice breed, female)
# Condition set: po, 1 h, by gavage, once, one hour before kaolin injection, vs untreated control group, footnotes mark + statistically significant, n not statistically significant
One number for each entry, in %.

INSERT INTO assay_data (molecule, target, quantity_unit, value_measured) VALUES
  ('O=C(O)Cc1ccc(OCc2ccc(Cl)cc2)c(Cl)c1', 'kaolin-induced edema of rat hind limb', '%', 28),
  ('CC(C(=O)O)c1ccc(OCc2ccccc2)c(Cl)c1 (centres unmarked) [reference compound]', 'kaolin-induced edema of rat hind limb', '%', 14),
  ('O=C(O)Cc1ccc(OCc2ccccc2)c(Cl)c1', 'kaolin-induced edema of rat hind limb', '%', 39);

Please go through the list and note inhibition in vivo at 25 mg/kg for each molecule.
1. COc1ccc(COc2ccc(CC(=O)O)cc2Cl)cc1Cl
2. CC(C(=O)O)c1ccc(OCc2ccc(Cl)cc2)c(Cl)c1 (centres unmarked) [reference compound]

Out:
[17, 25]

Where these numbers come from: patent US4221919A
